- Test system: 843126-344-R-J1-PDC complex spheroid viability
- methodSummary: Anticancer human tumor 843126-344-R-J1-PDC patient-derived melanoma cell line growth inhibition [POLQ]
- particulars: curve of first compound; second compound 10 µM
pIC50: −log10 of the molar value.
propertyMeasured: pIC50

{"compound": "Cn1ncnc1[C@H]1c2n[nH]c(=O)c3cc(F)cc(c23)N[C@@H]1c1ccc(F)cc1 + Cc1cccc(N(C)C(=O)C2C(O)CCN2c2nc(C)cc(C(F)(F)F)c2C#N)c1", "resultModifier": "<", "observedResult": 7.00}
{"compound": "CC1COCCN1c1cc(-c2ccnn2C)c2ccnc(-c3ccn[nH]3)c2n1 (stereo not given) + COC1C(OC(N)=O)C(O)C(Oc2ccc3c(O)c(NC(=O)c4ccc(O)c(CC=C(C)C)c4)c(=O)oc3c2C)OC1(C)C", "resultModifier": "=", "observedResult": 5.96}
{"compound": "COc1cccc2c1C(=O)c1c(O)c3c(c(O)c1C2=O)CC(O)(C(=O)CO)CC3OC1CC(N)C(O)C(C)O1 (stereo not given) + COC1C(OC(N)=O)C(O)C(Oc2ccc3c(O)c(NC(=O)c4ccc(O)c(CC=C(C)C)c4)c(=O)oc3c2C)OC1(C)C", "resultModifier": "=", "observedResult": 6.52}
{"compound": "COc1cc(C2c3cc4c(cc3C(OC3OC5COC(C)OC5C(O)C3O)C3COC(=O)C23)OCO4)cc(OC)c1O (stereo not given) + Nc1ccc(C#CCN(C(=O)Cc2ncc(C(F)(F)F)cc2C(F)(F)F)c2ccc(F)cc2)nn1", "resultModifier": "=", "observedResult": 5.20}
{"compound": "Cn1ncnc1[C@H]1c2n[nH]c(=O)c3cc(F)cc(c23)N[C@@H]1c1ccc(F)cc1 + Nc1ccc(C#CCN(C(=O)Cc2ncc(C(F)(F)F)cc2C(F)(F)F)c2ccc(F)cc2)nn1", "resultModifier": "<", "observedResult": 7.00}

====

The following compounds are listed with their measured viability, T/C values.
- Tested on: 843126-344-R-J1-PDC complex spheroid viability
- methodSummary: Anticancer human tumor 843126-344-R-J1-PDC cell line growth inhibition [POLQ];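 as to viability, T/C: spheroids exposed to drugs for seven days before readout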
- particulars: second compound 0.0316 µM; first compound 0.0316 µM; stronger effect = lower value
propertyMeasured: viability, T/C (%)

{"compound": "CC1COCCN1c1cc(C2(S(C)(=N)=O)CC2)nc(-c2ccnc3[nH]ccc23)n1 (stereo not given) + Nc1ccc(C#CCN(C(=O)Cc2ncc(C(F)(F)F)cc2C(F)(F)F)c2ccc(F)cc2)nn1", "units": "%", "observedResult": 101}
{"compound": "COc1ccc([C@@H](O)c2cc(-c3ncnc4cc(N5CCOCC5)ccc34)c(F)cc2Cl)nn1 + Cc1cccc(N(C)C(=O)C2C(O)CCN2c2nc(C)cc(C(F)(F)F)c2C#N)c1", "units": "%", "observedResult": 95.1}
{"compound": "CCCS(=O)(=O)Nc1ccc(F)c(C(=O)c2c[nH]c3ncc(-c4ccc(Cl)cc4)cc23)c1F + COC1C(OC(N)=O)C(O)C(Oc2ccc3c(O)c(NC(=O)c4ccc(O)c(CC=C(C)C)c4)c(=O)oc3c2C)OC1(C)C", "units": "%", "observedResult": 88.8}
{"compound": "O=C(Nc1ccc(O)c(NS(=O)(=O)c2ccc(F)cc2)c1)c1ccc(-c2ccccc2)cc1 + Nc1ccc(C#CCN(C(=O)Cc2ncc(C(F)(F)F)cc2C(F)(F)F)c2ccc(F)cc2)nn1", "units": "%", "observedResult": 82.5}
{"compound": "C=CC(=O)N1CCN(c2nc(=O)n(-c3c(C)ccnc3C(C)C)c3nc(-c4c(O)cccc4F)c(F)cc23)C(C)C1 (stereo not given) + Cc1cccc(N(C)C(=O)C2C(O)CCN2c2nc(C)cc(C(F)(F)F)c2C#N)c1", "units": "%", "observedResult": 87.6}
{"compound": "COc1cccc(OCCCN)c1-c1cc(Nc2cnc(C#N)cn2)n[nH]1 + COC1C(OC(N)=O)C(O)C(Oc2ccc3c(O)c(NC(=O)c4ccc(O)c(CC=C(C)C)c4)c(=O)oc3c2C)OC1(C)C", "units": "%", "observedResult": 77.7}
{"compound": "C=CCn1c(=O)c2cnc(Nc3ccc(N4CCN(C)CC4)cc3)nc2n1-c1cccc(C(C)(C)O)n1 + Cc1cccc(N(C)C(=O)C2C(O)CCN2c2nc(C)cc(C(F)(F)F)c2C#N)c1", "units": "%", "observedResult": 95.2}
{"compound": "COc1ccc([C@@H](O)c2cc(-c3ncnc4cc(N5CCOCC5)ccc34)c(F)cc2Cl)nn1 + COC1C(OC(N)=O)C(O)C(Oc2ccc3c(O)c(NC(=O)c4ccc(O)c(CC=C(C)C)c4)c(=O)oc3c2C)OC1(C)C", "units": "%", "observedResult": 116}
{"compound": "CCCS(=O)(=O)Nc1ccc(F)c(C(=O)c2c[nH]c3ncc(-c4ccc(Cl)cc4)cc23)c1F + Nc1ccc(C#CCN(C(=O)Cc2ncc(C(F)(F)F)cc2C(F)(F)F)c2ccc(F)cc2)nn1", "units": "%", "observedResult": 86}
{"compound": "CC[C@@]1(O)C(=O)OCc2c1cc1n(c2=O)Cc2cc3c(CN(C)C)c(O)ccc3nc2-1 + Cc1cccc(N(C)C(=O)C2C(O)CCN2c2nc(C)cc(C(F)(F)F)c2C#N)c1", "units": "%", "observedResult": 59.9}
